# Tested on: Rattus norvegicus
# Procedure summary: Neurotoxicity in pilocarpine-induced status epilepticus Sprague-Dawley albino rat model assessed as minimal motor impairment at 30 mg/kg, ip after 0.5 hrs by rotarod test
# Assay type: toxicity, organism-based
# Design: dose 30 mg/kg, route intraperitoneal
# Condition parameters: in vivo
Metric: Activity

Molecule	Experimental value
CC1(C)C(COC(N)=O)C1(C)C	Non-toxic
CC(C)C(COC(N)=O)C(C)C	Non-toxic
CCC(COC(N)=O)CC(C)C (racemic)	Non-toxic
CCCC(CCC)COC(=O)NC	Non-toxic
CCC(COC(N)=O)C(C)C (racemic)	Non-toxic
CC(COC(N)=O)CC(C)(C)C (racemic)	Non-toxic
CCCC(COC(N)=O)C(C)C (racemic)	Non-toxic
CCC(C)C(CC)COC(N)=O (racemic)	Non-toxic
CCC(C)CCOC(N)=O (racemic)	Non-toxic
CCCC(COC(N)=O)C(C)CC (racemic)	Toxic
CCC(C)C(COC(N)=O)C(C)C (racemic)	Non-toxic

====

# Tested on: Rattus norvegicus
# Procedure summary: Neurotoxicity in pilocarpine-induced status epilepticus Sprague-Dawley albino rat model assessed as minimal motor impairment at 300 mg/kg, ip after 1 hr by rotarod test
# Format: toxicity, organism-based
# Design: dose 300 mg/kg, route intraperitoneal
# Condition parameters: in vivo

Compound	Activity
CC1(C)C(COC(N)=O)C1(C)C	Toxic
CCCC(COC(N)=O)C(C)C (racemic)	Toxic
CCC(CC)COC(N)=O	Non-toxic
CC(COC(N)=O)CC(C)(C)C (racemic)	Toxic
CC(C)(C)CCOC(N)=O	Non-toxic
CCCC(CCC)COC(=O)NC	Toxic
CCCCC(CC)COC(N)=O (racemic)	Toxic
CCCC(CCC)COC(N)=O	Toxic
CCCC(COC(N)=O)C(C)CC (racemic)	Non-toxic
CC(C)(C)COC(N)=O	Toxic
CCC(COC(N)=O)CC(C)C (racemic)	Toxic
CCC(C)C(CC)COC(N)=O (racemic)	Toxic

====

# Tested on: Mus musculus
# Procedure summary: Anticonvulsant activity in albino CF1 mouse assessed as protection against maximal electroshock-induced seizures at 100 mg/kg, ip after 4 hrs
# Format: functional, organism-based
# Set-up: dose 100 mg/kg
Active and inactive are the calls of the source. The calls are words filed in the database; no cut-off is given here.

Compound	Activity
CCC(C)C(CC)COC(N)=O (racemic)	inactive
CCCC(CCC)COC(N)=O	inactive
CC(COC(N)=O)CC(C)(C)C (racemic)	inactive
CCC(CC)COC(N)=O	inactive
CCC(C)C(COC(N)=O)C(C)C (racemic)	inactive
CC(C)C(COC(N)=O)C(C)C	inactive
CCCC(CCC)COC(=O)NC	inactive
NC(=O)OCCc1ccccc1 [PHENYLETHYL CARBAMATE]	inactive
CCC(COC(N)=O)CC(C)C (racemic)	inactive
CCCC(COC(N)=O)C(C)CC (racemic)	inactive
CCCC(COC(N)=O)C(C)C (racemic)	inactive
CC1(C)C(COC(N)=O)C1(C)C	inactive
CC(C)(C)COC(N)=O	inactive
CCC(COC(N)=O)C(C)C (racemic)	inactive
CCC(C)CCOC(N)=O (racemic)	inactive
CC(C)C(C)COC(N)=O (racemic)	inactive
CCCC(CCC)COC(=O)NC1CCCCC1	inactive
CCCCC(CC)COC(N)=O (racemic)	inactive
